system: Ruminococcus gnavus DSM 108212; assay: fold change of 2-Phenylethylamine concentration vs plate DMSO controls (fold change (ratio)); higher = more amine produced, active = hit call of the paper (significant change in both replicates, either direction); conditions: incubation time: 27 h, anaerobic, 37 °C
Where a name gives a salt, the structure may show the parent alone.
This listing pairs compounds with measured fold change of 2-Phenylethylamine concentration.

C[C@@H](c1ncncc1F)[C@](O)(Cn1cncn1)c1ccc(F)cc1F [Voriconazole] (20 µM) | 0.991 (inactive)
CCOC(=O)CC(=O)N1CCSC1COc1ccccc1OC (centres undefined) [Moguisteine] (20 µM) | 0.994 (inactive)
CC/C=C(\C(=O)N[C@@H]1C(=O)N2C(C(=O)OCOC(=O)C(C)(C)C)=C(COC(N)=O)CS[C@H]12)c1csc(N)n1 [Cefcapene pivoxil hydrochloride monohydrate] (20 µM) | 1.01 (inactive)

# context switch: different compound, same fold change of 2-Phenylethylamine concentration
Inquiry: I have this compound here, O=C(O)CCC(=O)Nc1ccc(S(=O)(=O)Nc2nccs2)cc1 [Succinylsulfathiazole] (20 µM) , and I need its recorded fold change of 2-Phenylethylamine concentration.
Reply text: 1.02 (inactive)
